target: CYP2A13 (Homo sapiens); test: CYP2A13 inhibition, coumarin to 7-hydroxy-coumarin (Umbelliferone) fluorescence assay in microsomes; conditions: read-out: CYP2A13 inhibitor activity IC50; substrate coumarin 0.006 mM, 60 min at 37° C.
Sequence (Q16696 whole entry): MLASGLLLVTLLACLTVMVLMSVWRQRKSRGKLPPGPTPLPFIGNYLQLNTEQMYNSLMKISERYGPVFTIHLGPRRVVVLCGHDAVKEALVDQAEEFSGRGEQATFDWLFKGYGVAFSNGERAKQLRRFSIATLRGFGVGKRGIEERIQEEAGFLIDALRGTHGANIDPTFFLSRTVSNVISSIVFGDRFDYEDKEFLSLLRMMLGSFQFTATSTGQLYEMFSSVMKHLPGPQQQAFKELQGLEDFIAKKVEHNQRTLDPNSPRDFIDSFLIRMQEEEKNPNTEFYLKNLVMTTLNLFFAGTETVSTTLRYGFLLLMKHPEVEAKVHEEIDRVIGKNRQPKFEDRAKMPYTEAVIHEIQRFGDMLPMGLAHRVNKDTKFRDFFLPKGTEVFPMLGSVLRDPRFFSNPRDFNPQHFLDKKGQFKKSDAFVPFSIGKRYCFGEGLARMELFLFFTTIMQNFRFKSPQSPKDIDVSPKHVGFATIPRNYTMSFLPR
pIC50: −log10 of the molar value.

Molecule | Target under test | pIC50
CCCCCCn1ccnc1 [Compound ID 16, 1-hexyl-1H-imidazole] | CYP2A13 (Homo sapiens) | 5.68
CC(C)=CCn1ccnc1 [Compound ID 40, 1-(3-methylbut-2-enyl)-1H-imidazole] | CYP2A13 (Homo sapiens) | 5.24
CC(C)CCn1ccnc1 [Compound ID 39, 1-isopentyl-1H-imidazole] | CYP2A13 (Homo sapiens) | 5.25
CC/C=C/CCn1ccnc1 [Compound ID 46, (E)-1-(hex-3-enyl)-1H-imidazole] | CYP2A13 (Homo sapiens) | 5.17

====

biological target: CYP2A13 (Homo sapiens); test: CYP2A13 inhibition, coumarin to 7-hydroxy-coumarin (Umbelliferone) fluorescence assay in microsomes
Property measured: log10(IC50) (log10 of the value in µM)

Compound | log10(IC50)
CCCCCC1=C(C)CCC1=O | 0.08
O=C1CCCCCCCCCCCN1 | 0.72
c1nc2c([nH]1)CCCCCCCCCC2 | 1.06
CCCCC1CCC(=O)O1 (stereo not shown) [Compound ID 63, 5-butyldihydrofuran-2(3H)-one] | 1.18
CCCCCC1C(=O)C(C)CC1C(=O)OC (stereo not shown) | 0.89
c1ncc2c(n1)CCCCCCCCCC2 | -0.52
CC(C)=CCC/C(C)=C\Cn1ccnc1 | 0.81
CC/C=C\CC1CCCC(=O)O1 (stereo not shown) | 0.52
CCCCCn1ccnc1 | 0.62
CC/C=C\CC1C(=O)CCC1C (stereo not shown) | 0.45

====

molecular target: CYP2A13 (Homo sapiens); assay: CYP2A13 inhibition, coumarin to 7-hydroxy-coumarin (Umbelliferone) fluorescence assay in microsomes

Compound | Target under test | IC50
CCCCCCC1(C)CCC(=O)O1 (stereo not drawn) [Compound ID 31, 5-hexyl-5-methyldihydrofuran-2(3H)-one] | CYP2A13 (Homo sapiens) | 4.6 µM
CCCCCCC1CCCC1=O (stereo not drawn) | CYP2A13 (Homo sapiens) | 4.2 µM
c1ncc2c(n1)CCCCCCCC2 | CYP2A13 (Homo sapiens) | 3.7 µM
CCC1CCC2(CCC(=O)O2)CC1 (stereo not drawn) [Compound ID 29, 8-ethyl-1-oxaspiro[4.5]decan-2-one] | CYP2A13 (Homo sapiens) | 4.3 µM
c1cnc2c(c1)CCCCCCCCCC2 | CYP2A13 (Homo sapiens) | 3.5 µM
OCCCCn1ccnc1 | CYP2A13 (Homo sapiens) | 16.1 µM
c1cn2c(n1)CCCCCCCCCCC2 | CYP2A13 (Homo sapiens) | 14.6 µM
CCCCCN1C(=O)CC[C@H]1C(=O)OCC | CYP2A13 (Homo sapiens) | 3 µM
C=CCCCCn1ccnc1 | CYP2A13 (Homo sapiens) | 5.9 µM
CCCCCC12CC1(C)CCC2=O (stereo not drawn) | CYP2A13 (Homo sapiens) | 1.4 µM
c1cnc2c(n1)CCCCCCCCCC2 | CYP2A13 (Homo sapiens) | 6.1 µM
CC/C=C\CC1=C(C)CCC1=O | CYP2A13 (Homo sapiens) | 1.6 µM
CC1CCC2(CCC(=O)O2)CC1 (stereo not drawn) [Compound ID 69, 8-methyl-1-oxaspiro[4.5]decan-2-one] | CYP2A13 (Homo sapiens) | 17.6 µM
CCCCCC1C(=O)CCC1CC(=O)OC (stereo not drawn) | CYP2A13 (Homo sapiens) | 5.2 µM
CCOC(=O)CCCn1ccnc1 [Compound ID 49, ethyl 4-(1H-imidazol-1-yl)butanoate] | CYP2A13 (Homo sapiens) | 7.7 µM
CCCCC1OC(=O)CC1C (stereo not drawn) [Compound ID 11, 4-methyl-5-butyldihydrofuran-2(3H)-one] | CYP2A13 (Homo sapiens) | 1.6 µM
C=CCCCCCc1cnccn1 | CYP2A13 (Homo sapiens) | 10.2 µM
CCCCCC1C(=O)CCC1C (stereo not drawn) | CYP2A13 (Homo sapiens) | 4.8 µM
c1nc2c([nH]1)CCCCCCCCC2 | CYP2A13 (Homo sapiens) | 5 µM
CC/C=C\C[C@@H]1C(=O)CC[C@@H]1CC(=O)OC | CYP2A13 (Homo sapiens) | 3.5 µM
CCCCCCC1=C(C)CCC1=O | CYP2A13 (Homo sapiens) | 0.4 µM
